assay-overview: Rat Rotarod test (motor impairment and ataxia)
assay-setup: in vivo, po, p.o. at 2 hours, dose causing 50% of the animals to fall from the roller, read-out: TD50 (compound alone)
readout: TD50 at 120 min (mg/kg)
Please state the figure in mg/kg; there is no need to write the unit.

>>> measured_result("C[C@H](NCc1ccc(OCc2ccccc2F)cc1)C(N)=O")
470

Alright, here's another molecule for you.
Lookup result for NCC1(CC(=O)O)CCCCC1 [GBP, 1-(aminomethyl)cyclohexaneacetic acid, reference compound] ; measured TD50 at 120 min: 430

These entries and their values trace back to patent US8710040B2.
